Please go through the items and note down their IC50.
assay: Cytotoxicity against human MCF7 cells assessed as reduction in cell viability after 48 hrs by CCK8 assay; assay type: functional, cell-based; settings: MCF7, 48 h

Problem: # return recorded IC50 for input "CC(=O)c1c(C)c2cnc(Nc3ccc(N4CCN(CCO)CC4)cn3)nc2n(C2CCCC2)c1=O"
Solution: 0.689 µM

Problem: # return recorded IC50 for input "CCCCOC(=O)N1CCN(c2ccc(Nc3ncc4c(C)c(C(C)=O)c(=O)n(C5CCCC5)c4n3)nc2)CC1"
Solution: > 2 µM

Problem: # return recorded IC50 for input "CC(=O)c1c(C)c2cnc(Nc3ccc(N4CCN(C(=O)CCC(=O)O)CC4)cn3)nc2n(C2CCCC2)c1=O"
Solution: > 2 µM

Problem: # return recorded IC50 for input "CCOC(=O)CCN1CCN(c2ccc(Nc3ncc4c(C)c(C(C)=O)c(=O)n(C5CCCC5)c4n3)nc2)CC1"
Solution: > 2 µM

Problem: # return recorded IC50 for input "CCCCCOC(=O)N1CCN(c2ccc(Nc3ncc4c(C)c(C(C)=O)c(=O)n(C5CCCC5)c4n3)nc2)CC1"
Solution: > 2 µM

Problem: # return recorded IC50 for input "CC(=O)c1c(C)c2cnc(Nc3ccc(N4CCN(CCC(=O)O)CC4)cn3)nc2n(C2CCCC2)c1=O"
Solution: > 2 µM

Problem: # return recorded IC50 for input "CC(=O)OCOC(=O)N1CCN(c2ccc(Nc3ncc4c(C)c(C(C)=O)c(=O)n(C5CCCC5)c4n3)nc2)CC1"
Solution: 0.371 µM

Problem: # return recorded IC50 for input "CCN1CCN(c2ccc(Nc3ncc4c(C)c(C(C)=O)c(=O)n(C5CCCC5)c4n3)nc2)CC1"
Solution: 0.542 µM
